# method-notes: Selectivity index, ratio of IC50 for human L02 cells to IC50 for human Huh-7 cells by MTT assay
# Type: toxicity
# condition-parameters: L02 cells versus Huh-7 cells, read-out: Ratio IC50
readout-kind: selectivity ratio
# output: bare number, no unit

Qu. Name the recorded selectivity ratio for CC1=C(O)C(=O)C=C2C1=CC=C1[C@@]2(C)CC[C@@]2(C)[C@@H]3C[C@](C)(C(=O)O)CC[C@]3(C)CC[C@]12C .
Ans. 0.25

Qu. Consider next the compound CN(C)CCCNC(=O)c1cc2cc(Nc3nccc(-c4cccnc4)n3)ccc2[nH]1 in the same way.
Ans. 3.14

* * *

# System: HeLa
# method-notes: Antiproliferative activity against human HeLa cells assessed as cell viability at 10 uM incubated for 48 hrs by MTT assay
# Assay type: functional
# condition-parameters: read-out: Activity
Readings of viability at 10 µM for the listed compounds
# output: bare number, implied unit %

Worked cases, viability at 10 µM given:
CC1=C(O)C(=O)C=C2C1=CC=C1[C@@]2(C)CC[C@@]2(C)[C@@H]3C[C@](C)(C(=O)O)CC[C@]3(C)CC[C@]12C	49.2
O=C(Nc1ccccc1)c1cc2cc(Nc3nccc(-c4cccnc4)n3)ccc2[nH]1	46.4
COc1cc(NC(=O)c2cc3cc(Nc4nccc(-c5cccnc5)n4)ccc3[nH]2)cc(OC)c1OC	44.6
O=C(NC12CC3CC(CC(C3)C1)C2)c1cc2cc(Nc3nccc(-c4cccnc4)n3)ccc2[nH]1	124
CCN(CC)CCCNC(=O)c1cc2cc(Nc3nccc(-c4cccnc4)n3)ccc2[nH]1	39.4
Cc1ccc(NC(=O)c2cc3cc(Nc4nccc(-c5cccnc5)n4)ccc3[nH]2)c(N)c1	29.5
COc1cc(NC(=O)c2cc3cc(Nc4nccc(-c5cccnc5)n4)ccc3[nH]2)cc(OC)c1	29.7

Pending compound:
Qu. Kindly state the measured viability at 10 µM obtained for O=C(Nc1cc(Br)ccn1)c1cc2cc(Nc3nccc(-c4cccnc4)n3)ccc2[nH]1 with HeLa.
Ans. 115

* * *

# Test system: HeLa
# method-notes: Antiproliferative activity against human HeLa cells assessed as cell viability at 10 uM incubated for 48 hrs by MTT assay
# Format: functional
# condition-parameters: read-out: Activity
readout-kind: viability at 10 µM (%)
# output: bare number, implied unit %

Recorded results for 5 molecules are shown here.
O=C(Nc1cncnc1)c1cc2cc(Nc3nccc(-c4cccnc4)n3)ccc2[nH]1	108
Cc1ccccc1NC(=O)c1cc2cc(Nc3nccc(-c4cccnc4)n3)ccc2[nH]1	35.4
COc1ccc(NC(=O)c2cc3cc(Nc4nccc(-c5cccnc5)n4)ccc3[nH]2)c(C)c1	54.8
Nc1ccc(Cl)cc1NC(=O)c1cc2cc(Nc3nccc(-c4cccnc4)n3)ccc2[nH]1	89.5
O=C(NCc1ccccc1)c1cc2cc(Nc3nccc(-c4cccnc4)n3)ccc2[nH]1	82

Qu. GET /values?readout=viability at 10 µM&system=HeLa&item= CN(C)CCCNC(=O)c1cc2cc(Nc3nccc(-c4cccnc4)n3)ccc2[nH]1
Ans. 19.4

Qu. Consider next the molecule Cc1ccc(NC(=O)c2cc3cc(Nc4nccc(-c5cccnc5)n4)ccc3[nH]2)cc1C in the same way.
Ans. 43.4

Qu. Further, for CCCCNC(=O)c1cc2cc(Nc3nccc(-c4cccnc4)n3)ccc2[nH]1 ?
Ans. 104

* * *

# method-notes: Cytotoxicity against human L02 cells assessed as cell viability at 10 uM incubated for 48 hrs by MTT assay
# Type: toxicity, cell-based
# condition-parameters: read-out: Activity
Lab note: cut-off is 70%. Strictly less in viability at 48 h, 10 µM is Condition met. Exactly 70% or more is Condition not met.

Cc1ccc(NC(=O)c2cc3cc(Nc4nccc(-c5cccnc5)n4)ccc3[nH]2)c(C)c1	Condition met
COc1cc(NC(=O)c2cc3cc(Nc4nccc(-c5cccnc5)n4)ccc3[nH]2)cc(OC)c1	Condition met
O=C(Nc1ccc(F)c(F)c1F)c1cc2cc(Nc3nccc(-c4cccnc4)n3)ccc2[nH]1	Condition not met
O=C(NCCN1CCCCC1)c1cc2cc(Nc3nccc(-c4cccnc4)n3)ccc2[nH]1	Condition met

Qu. Please determine if CN(C)CCCNC(=O)c1cc2cc(Nc3nccc(-c4cccnc4)n3)ccc2[nH]1 is below 70% in terms of viability at 48 h, 10 µM.
Ans. Condition met

Qu. Quick one: COc1cc(NC(=O)c2cc3cc(Nc4nccc(-c5cccnc5)n4)ccc3[nH]2)cc(OC)c1OC
Ans. Condition met

Qu. // repeat for CCN(CC)CCCNC(=O)c1cc2cc(Nc3nccc(-c4cccnc4)n3)ccc2[nH]1 and report
Ans. Condition not met

Qu. Same again, this time with Cc1ccc(NC(=O)c2cc3cc(Nc4nccc(-c5cccnc5)n4)ccc3[nH]2)cc1C
Ans. Condition met

Qu. Try Cc1ccc(NC(=O)c2cc3cc(Nc4nccc(-c5cccnc5)n4)ccc3[nH]2)cc1Nc1nccc(-c2cccnc2)n1 next.
Ans. Condition not met

Qu. Moving on to O=C(NC12CC3CC(CC(C3)C1)C2)c1cc2cc(Nc3nccc(-c4cccnc4)n3)ccc2[nH]1
Ans. Condition not met

Qu. Also check O=C(NCc1ccccc1)c1cc2cc(Nc3nccc(-c4cccnc4)n3)ccc2[nH]1
Ans. Condition not met

Qu. And the next one, O=C(c1cc2cc(Nc3nccc(-c4cccnc4)n3)ccc2[nH]1)N1CCOCC1 ?
Ans. Condition met

Qu. Do the same for O=C(Nc1cc(Br)ccn1)c1cc2cc(Nc3nccc(-c4cccnc4)n3)ccc2[nH]1 please
Ans. Condition not met

Qu. Further, for Nc1ccc(Cl)cc1NC(=O)c1cc2cc(Nc3nccc(-c4cccnc4)n3)ccc2[nH]1 ?
Ans. Condition met

Qu. Now the compound CC1=C(O)C(=O)C=C2C1=CC=C1[C@@]2(C)CC[C@@]2(C)[C@@H]3C[C@](C)(C(=O)O)CC[C@]3(C)CC[C@]12C [CELASTROL]
Ans. Condition met

Qu. # iterate: CCCCNC(=O)c1cc2cc(Nc3nccc(-c4cccnc4)n3)ccc2[nH]1
Ans. Condition not met

Qu. // next record Cc1ccc(NC(=O)c2cc3cc(Nc4nccc(-c5cccnc5)n4)ccc3[nH]2)c(N)c1
Ans. Condition met

* * *

# method-notes: Toxicity in Zebra fish AB embryo assessed as mortality rate at 0.5 uM incubated for 72 hrs
# Parameters: species or system Danio rerio
# condition-parameters: zebrafish, read-out: Activity
readout-kind: mortality at 72 h, 0.5 µM (%)
Just the number please, in %, no unit attached.

Qu. If you can, please state the reported mortality at 72 h, 0.5 µM value of CC1=C(O)C(=O)C=C2C1=CC=C1[C@@]2(C)CC[C@@]2(C)[C@@H]3C[C@](C)(C(=O)O)CC[C@]3(C)CC[C@]12C .
Ans. 94

* * *

# method-notes: Toxicity in Zebra fish AB embryo assessed as mortality rate at 1 uM incubated for 24 hrs
# Parameters: species or system Danio rerio
# condition-parameters: zebrafish, read-out: Activity
readout-kind: mortality at 24 h, 1 µM (%)
The answer is to be given in %; state only the numeric part.

Qu. GET /values?readout=mortality at 24 h, 1 µM&item= CC1=C(O)C(=O)C=C2C1=CC=C1[C@@]2(C)CC[C@@]2(C)[C@@H]3C[C@](C)(C(=O)O)CC[C@]3(C)CC[C@]12C
Ans. 100

* * *

# method-notes: Cytotoxicity against human L02 cells assessed as cell viability at 10 uM incubated for 48 hrs by MTT assay
# Format: toxicity, cell-based
# condition-parameters: read-out: Activity
// returns false unless viability at 48 h, 10 µM is strictly below 80%, in which case true

Use these answered entries as a reference point.
O=C(Nc1ccccc1)c1cc2cc(Nc3nccc(-c4cccnc4)n3)ccc2[nH]1	true
COc1ccc(NC(=O)c2cc3cc(Nc4nccc(-c5cccnc5)n4)ccc3[nH]2)c(C)c1	true
COc1ccc(NC(=O)c2cc3cc(Nc4nccc(-c5cccnc5)n4)ccc3[nH]2)cc1OC	false
O=C(Nc1cncnc1)c1cc2cc(Nc3nccc(-c4cccnc4)n3)ccc2[nH]1	true

// next entry
Qu. A record lists Cc1ccccc1NC(=O)c1cc2cc(Nc3nccc(-c4cccnc4)n3)ccc2[nH]1 . Is its viability at 48 h, 10 µM below 80%?
Ans. false

* * *

molecules and their reported IC50 at 48 h
# method-notes: Cytotoxicity against human L02 cells assessed as reduction in cell viability incubated for 48 hrs by MTT assay
# Type: toxicity, cell-based
Remember to put the unit after the number in your answer.

CN(C)CCCNC(=O)c1cc2cc(Nc3nccc(-c4cccnc4)n3)ccc2[nH]1	11.2 µM

Consider now this further molecule.
Qu. Which IC50 at 48 h reading was recorded for the molecule CC1=C(O)C(=O)C=C2C1=CC=C1[C@@]2(C)CC[C@@]2(C)[C@@H]3C[C@](C)(C(=O)O)CC[C@]3(C)CC[C@]12C ?
Ans. 1.12 µM

* * *

# method-notes: Selectivity index, ratio of IC50 for human L02 cells to IC50 for human HepG2 cells by MTT assay
# Format: toxicity
# condition-parameters: L02 cells versus HepG2 cells, read-out: Ratio IC50
readout-kind: selectivity ratio

Qu. Which selectivity ratio reading was recorded for the molecule CC1=C(O)C(=O)C=C2C1=CC=C1[C@@]2(C)CC[C@@]2(C)[C@@H]3C[C@](C)(C(=O)O)CC[C@]3(C)CC[C@]12C ?
Ans. 0.3

Qu. Can you check CN(C)CCCNC(=O)c1cc2cc(Nc3nccc(-c4cccnc4)n3)ccc2[nH]1 next?
Ans. 1.24
